activity coefficient: recorded values
# EXPERIMENT NOTES: activity coefficient (dimensionless); of the first substance listed, at infinite dilution; xn = mol fraction of the nth substance listed
# MEASUREMENT CONDITIONS: 348.15 K; 101 kPa; Liquid; Chromatography; x1 = 0
Quick one: just the number, no unit, thanks!

Worked set:
[
  {
    "MOLECULE": "CCC(C)CC [3-methylpentane] + CCCC[N+]1(C)CCOCC1.N#C[C-](C#N)C#N",
    "DATA VALUE": 38.9
  },
  {
    "MOLECULE": "CC(C)(C)O [2-methylpropan-2-ol] + CCCC[N+]1(C)CCOCC1.N#C[C-](C#N)C#N",
    "DATA VALUE": 1.69
  }
]

Lookup result for CCCOCCC [dipropyl ether] + CCCC[N+]1(C)CCOCC1.N#C[C-](C#N)C#N ; measured activity coefficient: 14.9

Lookup result for CCC[N+](=O)[O-] [1-nitropropane] + CCCC[N+]1(C)CCOCC1.N#C[C-](C#N)C#N ; measured activity coefficient: 1

Lookup result for CC(C)O [propan-2-ol] + CCCC[N+]1(C)CCOCC1.N#C[C-](C#N)C#N ; measured activity coefficient: 1.4

Lookup result for COC(C)(C)C [2-methoxy-2-methylpropane] + CCCC[N+]1(C)CCOCC1.N#C[C-](C#N)C#N ; measured activity coefficient: 5.76

Lookup result for CCOC(C)=O [ethyl acetate] + CCCC[N+]1(C)CCOCC1.N#C[C-](C#N)C#N ; measured activity coefficient: 1.93

Lookup result for Cc1ccccc1 [toluene] + CCCC[N+]1(C)CCOCC1.N#C[C-](C#N)C#N ; measured activity coefficient: 2.38

Hey, just so you know, these numbers are from the NIST ThermoML archive (doi:10.1016/j.jct.2013.08.030).
